Tested on: Liver microsomes
Experiment: Intrinsic clearance in human liver microsomes at 1 umol/L by LC/MS analysis in presence of NADPH
Format: ADME, Microsome
Assay Conditions: 1 µM
Measured Quantity: Intrinsic clearance (CLint)

Known results for compounds:
CCOC(=O)c1cc(C#N)c(N2CCC(NC(=O)NS(=O)(=O)c3ccc(Cl)s3)CC2)nc1C = > 70 µL/min/mg
CCOC(=O)c1cc(C#N)c(N2CCN(C(=O)NS(=O)(=O)c3ccc(Cl)s3)CC2C)nc1C (racemic) = > 70 µL/min/mg
CCOC(=O)c1cc(C#N)c(N2CCC(NC(=O)NS(=O)(=O)c3ccc(Cl)cc3)CC2)nc1C = > 70 µL/min/mg
CCOC(=O)c1cc(C#N)c(N2CC(NC(=O)NS(=O)(=O)c3ccccc3)C2)nc1C = < 13 µL/min/mg

# ---- query compound ----
Which Intrinsic clearance (CLint) value is on record for CCOC(=O)c1cnc(N2CCN(C(=O)NS(=O)(=O)c3ccc(F)cc3)CC2)c(Cl)c1 ?
> 70 µL/min/mg
